# Measured On: T1, Biotinylated Avitag-hSCF (human, UniProt P21583 26-190, limits assumed, biotinylated Avitag)
# T1 construct: Bought reagent; also called hSCF (Acros Biosystems SCF-H82E1)
# Experiment Notes: BLI (Octet), steady state: biotinylated SCF on streptavidin biosensor, CD117 D1-2-3 variant as analyte; KD relative to WT

# Binder, binding result
rows = [
    ("E73G (receptor, not in the list MOLECULES; also called human CD117 D1-2-3 variant E73G) extracellular domains 1, 2 and 3: QPSVSPGEPSPPSIHPGKSDLIVRVGDEIRLLCTDPGFVKWTFEILDGTNENKQNEWITEKAEATNTGKYTCTNKHGLSNSIYVFVRDPAKLFLVDRSLYGKEDNDTLVRCPLTDPEVTNYSLKGCQGKPLPKDLRFIPDPKAGIMIKSVKRAYHRLCLHCSVDQEGKSVLSEKFILKVRPAFKAVPVVSVSKASYLLREGEEFTVTCTIKDVSSSVYSTWKRENSQTKLQEKYNSWHHGDFNYERQATLTISSARVNDSGVFMCYANNTFGSANVTTTLEVVD", "binds"),
    ("V120P (receptor, not in the list MOLECULES; also called human CD117 D1-2-3 variant V120P) extracellular domains 1, 2 and 3: QPSVSPGEPSPPSIHPGKSDLIVRVGDEIRLLCTDPGFVKWTFEILDETNENKQNEWITEKAEATNTGKYTCTNKHGLSNSIYVFVRDPAKLFLPDRSLYGKEDNDTLVRCPLTDPEVTNYSLKGCQGKPLPKDLRFIPDPKAGIMIKSVKRAYHRLCLHCSVDQEGKSVLSEKFILKVRPAFKAVPVVSVSKASYLLREGEEFTVTCTIKDVSSSVYSTWKRENSQTKLQEKYNSWHHGDFNYERQATLTISSARVNDSGVFMCYANNTFGSANVTTTLEVVD", "binds"),
]
